Assay: Brain levels (kp and kpu,u) after oral administration
Type: in vivo, CDI mice
Settings: CDI, mouse, brain / plasma, po, 20 mg/kg, mice, 20 mpk PO, whole brain AUC over 24 h divided by plasma AUC; read-out: kp (raw)
Method: The in vivo total brain to plasma ratio was assessed in CDI mice after oral administration of the compound. Blood was collected at several timepoints up to 24 h, and transferred into plastic micro centrifuge tubes with EDTA-K2 as anticoagulant. […] Plasma and brain drug levels were quantified by LC/MS/MS on a AB Sciex Triple Quad 5500+ instrument, after separation on a HALO 160A ES-C18, 2.7 μm 2.1-50 mm column. […] Kpuu was calculated as (AUCtot,br×Fu,br)/(AUCtot,pl×Fu,pl). […]
Please note: Kp at 24 h exactly at 0.7 is No. Only values below 0.7 get Yes.

>  <compound>
CC1(C)COCC[C@@H]1Nc1nnc(-c2ccc(C(F)(F)F)cc2O)c2ccncc12 (single isomer, unassigned) [Compound 15]

>  <qualitative-label>
No

$$$$
>  <compound>
CC1(C)CC[C@H](Nc2nnc(-c3ccc(C(F)F)cc3O)c3ccncc23)CO1 (single isomer, unassigned) [Compound 20]

>  <qualitative-label>
Yes

$$$$
>  <compound>
Cc1ccc(-c2nnc(N[C@H]3CCOC(C)(C)C3)c3cnccc23)c(O)c1 (single isomer, unassigned) [Compound 14]

>  <qualitative-label>
Yes

$$$$
>  <compound>
Cc1ccc(-c2nnc(N[C@H]3CCOCC3(C)C)c3cnccc23)c(O)c1 (single isomer, unassigned) [Compound 13]

>  <qualitative-label>
Yes

$$$$

Continue with the next compound.
Query: Strictly below 0.7 in Kp at 24 h? C[C@@H]1COCC[C@H]1Nc1nnc(-c2ccc(Cl)cc2O)c2ccncc12 (single isomer, unassigned) [Compound 18A*]
Result: No

====

target: NLRP3 (Homo sapiens); construct: endogenous in cells; assay: Human whole blood (hWB) NLRP3 assay; settings: LPS priming 1 μg/ml, ATP activation, read-out: hWB IC50 (raw activity data)
pIC50: −log10 of the molar value.
Binary classification by pIC50, with 6 as an inclusive lower bound for y; all other cases are n.

Past entries and their recorded results:
>  <compound>
CN1CCO[C@@H](CNc2nnc(-c3ccc(C(F)(F)F)cc3O)c3ccncc23)C1 (single isomer, unassigned) [Compound 6*]

>  <qualitative-label>
y

$$$$
>  <compound>
CC1(C)CC[C@@H](Nc2nnc(-c3ccc(C(F)F)cc3O)c3ccncc23)CO1 (single isomer, unassigned) [Compound 20B]

>  <qualitative-label>
n

$$$$
>  <compound>
Cc1ccc(-c2nnc(N[C@@H]3COC(C)(C)C3)c3cnccc23)c(O)c1F (single isomer, unassigned) [Compound 12B]

>  <qualitative-label>
n

$$$$

Query: Identify whether the reported pIC50 of the following compound is 6 or greater: CC1(C)C[C@H](Nc2nnc(-c3ccc(OC(F)F)cc3O)c3ccncc23)CO1 (single isomer, unassigned) [Compound 9*]
Result: y

Query: Identify whether the reported pIC50 of the following compound is 6 or greater: C[C@@H]1COCC[C@@H]1Nc1nnc(-c2ccc(Cl)cc2O)c2ccncc12 (single isomer, unassigned) [Compound 18D*]
Result: n

====

biological target: NLRP3 (Homo sapiens, UniProt Q96P20); construct: endogenous in cells; assay: Human whole blood (hWB) NLRP3 assay; assay type: cell-based; settings: LPS priming 1 μg/ml, ATP activation, read-out: hWB IC50 (raw activity data)
Sequence (Q96P20 whole entry): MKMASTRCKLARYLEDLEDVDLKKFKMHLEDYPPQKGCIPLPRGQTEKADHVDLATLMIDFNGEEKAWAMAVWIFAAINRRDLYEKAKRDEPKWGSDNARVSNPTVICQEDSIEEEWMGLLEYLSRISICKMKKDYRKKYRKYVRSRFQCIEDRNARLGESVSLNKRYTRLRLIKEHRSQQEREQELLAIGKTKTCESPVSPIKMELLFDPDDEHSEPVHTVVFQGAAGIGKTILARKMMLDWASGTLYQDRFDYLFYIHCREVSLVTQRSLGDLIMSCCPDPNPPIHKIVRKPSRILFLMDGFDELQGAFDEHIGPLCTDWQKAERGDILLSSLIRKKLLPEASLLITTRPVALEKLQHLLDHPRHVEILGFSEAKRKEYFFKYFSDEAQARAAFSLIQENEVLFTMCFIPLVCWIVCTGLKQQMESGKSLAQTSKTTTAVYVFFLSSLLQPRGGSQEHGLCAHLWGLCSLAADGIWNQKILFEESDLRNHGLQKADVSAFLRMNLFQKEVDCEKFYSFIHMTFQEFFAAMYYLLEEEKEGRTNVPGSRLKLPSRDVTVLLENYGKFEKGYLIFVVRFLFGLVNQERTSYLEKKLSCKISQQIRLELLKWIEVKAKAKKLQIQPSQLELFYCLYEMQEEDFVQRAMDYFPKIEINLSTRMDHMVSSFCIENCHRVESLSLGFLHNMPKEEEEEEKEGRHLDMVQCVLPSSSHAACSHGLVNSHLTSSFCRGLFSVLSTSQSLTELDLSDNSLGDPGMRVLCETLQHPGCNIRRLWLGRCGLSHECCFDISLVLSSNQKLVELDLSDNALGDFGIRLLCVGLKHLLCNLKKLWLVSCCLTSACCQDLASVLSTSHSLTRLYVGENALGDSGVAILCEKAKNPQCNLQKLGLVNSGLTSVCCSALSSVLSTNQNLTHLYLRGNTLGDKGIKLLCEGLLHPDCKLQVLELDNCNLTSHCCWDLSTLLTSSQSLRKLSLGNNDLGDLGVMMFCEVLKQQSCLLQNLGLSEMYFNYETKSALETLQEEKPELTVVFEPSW
property-label: pIC50
pIC50 here is simply -log10 of the concentration when that concentration is written in mol/L.

>  <compound>
C[C@@H]1C[C@H](Nc2nnc(-c3ccc(Cl)cc3O)c3ccncc23)CCO1 (single isomer, unassigned) [Compound 25A*]

>  <property-label>
pIC50

>  <experimental-value>
6.24

$$$$

# pIC50 (compound: Cc1cc(C)c(-c2nnc(N[C@H]3COC(C)(C)C3)c3cnccc23)c(O)c1 (single isomer, unassigned) ) is 6.48

# pIC50 (compound: CC1(C)C[C@@H](Nc2nnc(-c3ccc(C(F)F)cc3O)c3ccncc23)CCO1 (single isomer, unassigned) ) is 5.74

# pIC50 (compound: C[C@H]1COCC[C@@H]1Nc1nnc(-c2ccc(Cl)cc2O)c2ccncc12 (single isomer, unassigned) [Compound 18C*] ) is 5.92

# pIC50 (compound: "Cc1ccc(-c2nnc(N[C@H]3COC(C)(C)C3)c3cnccc23)c(O)c1" ) is 6.66

# pIC50 (compound: CC1(C)CC[C@H](Nc2nnc(-c3ccc(C(F)F)cc3O)c3ccncc23)CO1 (single isomer, unassigned) ) is 6.05

====

Measured Kp at 24 h by item
experiment: Brain levels (kp and kpu,u) after oral administration; type: in vivo, CDI mice; conditions: CDI, mouse, brain / plasma, po, 20 mg/kg, mice, 20 mpk PO, whole brain AUC over 24 h divided by plasma AUC; read-out: kp (code)

Solved entries (count: 8):
>  <compound>
C[C@@H]1COCC[C@H]1Nc1nnc(-c2ccc(Cl)cc2O)c2ccncc12 (single isomer, unassigned) [Compound 18A*]

>  <experimental-value>
> 0.3

$$$$
>  <compound>
Oc1cc(Cl)ccc1-c1nnc(N[C@H]2CCOC2)c2cnccc12 (single isomer, unassigned) [Compound 7*, reference compound]

>  <experimental-value>
≤ 0.3

$$$$
>  <compound>
[2H]C([2H])([2H])OC(C)(C)CNc1nnc(-c2ccc(C(F)F)cc2O)c2ccncc12

>  <experimental-value>
≤ 0.3

$$$$
>  <compound>
C[C@@H]1C[C@H](Nc2nnc(-c3ccc(Cl)cc3O)c3ccncc23)CCO1 (single isomer, unassigned) [Compound 25A*]

>  <experimental-value>
> 0.3

$$$$
>  <compound>
C[C@@H]1C[C@@H](Nc2nnc(-c3ccc(Cl)cc3O)c3ccncc23)CCO1 (single isomer, unassigned) [Compound 25D*]

>  <experimental-value>
> 0.3

$$$$
>  <compound>
C[C@H]1C[C@H](Nc2nnc(-c3ccc(Cl)cc3O)c3ccncc23)CCO1 (single isomer, unassigned) [Compound 25C*]

>  <experimental-value>
> 0.3

$$$$
>  <compound>
CC1(C)COC[C@@H]1Nc1nnc(-c2ccc(Cl)cc2O)c2ccncc12 (single isomer, unassigned)

>  <experimental-value>
> 0.3

$$$$
>  <compound>
CC1(C)C[C@@H](Nc2nnc(-c3ccc(OC(F)F)cc3O)c3ccncc23)CO1 (single isomer, unassigned)

>  <experimental-value>
≤ 0.3

$$$$

# Kp at 24 h (compound: Oc1cc(C(F)(F)F)ccc1-c1nnc(N[C@H]2COC3(CC3)C2)c2cnccc12 (single isomer, unassigned) ) is > 0.3

# Kp at 24 h (compound: CN1CCO[C@@H](CNc2nnc(-c3ccc(C(F)(F)F)cc3O)c3ccncc23)C1 (single isomer, unassigned) ) is > 0.3

====

Measured Kp at 24 h by item
experiment: Brain levels (kp and kpu,u) after oral administration; type: in vivo, CDI mice; settings: CDI, mouse, brain / plasma, po, 20 mg/kg, mice, 20 mpk PO, whole brain AUC over 24 h divided by plasma AUC; read-out: kp (raw)
Answer with a bare number; do not write a unit.

>  <compound>
CC1(C)C[C@@H](Nc2nnc(-c3ccc(Cl)cc3O)c3ccncc23)CCO1 (single isomer, unassigned)

>  <Kp at 24 h>
0.81

$$$$
>  <compound>
CN1CCO[C@@H](CNc2nnc(-c3ccc(C(F)(F)F)cc3O)c3ccncc23)C1 (single isomer, unassigned)

>  <Kp at 24 h>
0.66

$$$$
>  <compound>
CC1(C)COCC[C@@H]1Nc1nnc(-c2ccc(C(F)F)cc2O)c2ccncc12 (single isomer, unassigned)

>  <Kp at 24 h>
0.69

$$$$
>  <compound>
Cc1cc(C)c(-c2nnc(N[C@H]3COC(C)(C)C3)c3cnccc23)c(O)c1 (single isomer, unassigned)

>  <Kp at 24 h>
0.05

$$$$
>  <compound>
Cc1cc(O)c(-c2nnc(N[C@H]3COC(C)(C)C3)c3cnccc23)c(F)c1 (single isomer, unassigned)

>  <Kp at 24 h>
0.3

$$$$
>  <compound>
CC1(C)C[C@@H](Nc2nnc(-c3ccc(C(F)(F)F)cc3O)c3ccncc23)CCO1 (single isomer, unassigned)

>  <Kp at 24 h>
0.96

$$$$

# Kp at 24 h (compound: CC1(C)C[C@@H](Nc2nnc(-c3ccc(C(F)F)cc3O)c3ccncc23)CCO1 (single isomer, unassigned) ) is 0.48

# Kp at 24 h (compound: CC1(C)C[C@@H](Nc2nnc(-c3ccc(C(F)F)cc3O)c3ccncc23)CO1 (single isomer, unassigned) ) is 0.24

====

Measured IC50 by item
target: NLRP3 (Homo sapiens, UniProt Q96P20); construct: endogenous in cells; test: Human whole blood (hWB) NLRP3 assay; details: LPS priming 1 μg/ml, ATP activation, read-out: hWB IC50 (raw activity data)
Mention the unit after the number when you answer.

# IC50 (compound: Cc1ccc(-c2nnc(N[C@H]3CCOC(C)(C)C3)c3cnccc23)c(O)c1 (single isomer, unassigned) ) is 0.51 µM

# IC50 (compound: Oc1cc(C(F)(F)F)ccc1-c1nnc(N[C@H]2COC3(CC3)C2)c2cnccc12 (single isomer, unassigned) ) is 1.4 µM

# IC50 (compound: CC1(C)C[C@@H](Nc2nnc(-c3ccc(Cl)cc3O)c3ccncc23)CCO1 (single isomer, unassigned) ) is 0.66 µM

# IC50 (compound: CC1(C)COCC[C@H]1Nc1nnc(-c2ccc(Cl)cc2O)c2ccncc12 (single isomer, unassigned) ) is 11 µM
